# target_or_test_system: T1, platelet-derived growth factor β-receptor (PDGFR-β)
# T1 chain: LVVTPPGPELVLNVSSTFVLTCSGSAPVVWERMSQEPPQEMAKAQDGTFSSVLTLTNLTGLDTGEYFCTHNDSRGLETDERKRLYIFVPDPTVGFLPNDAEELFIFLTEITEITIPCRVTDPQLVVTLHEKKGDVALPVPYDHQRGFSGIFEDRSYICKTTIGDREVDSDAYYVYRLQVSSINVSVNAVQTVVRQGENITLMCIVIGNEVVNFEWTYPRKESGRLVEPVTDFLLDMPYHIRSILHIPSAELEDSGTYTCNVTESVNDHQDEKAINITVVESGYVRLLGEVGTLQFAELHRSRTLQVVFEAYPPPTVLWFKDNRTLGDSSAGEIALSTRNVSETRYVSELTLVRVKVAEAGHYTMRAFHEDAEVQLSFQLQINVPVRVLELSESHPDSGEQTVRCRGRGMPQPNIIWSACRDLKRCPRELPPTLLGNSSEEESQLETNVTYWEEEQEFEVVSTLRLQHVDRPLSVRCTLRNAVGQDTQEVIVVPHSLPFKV
# assay_notes: solid-phase competition, displacement of 125I-PDGF-BB from plate-immobilised PDGFR-β
Non-standard residues stand in square brackets, D forms with d.
test_readout: IC50 (µM)
Field format: number, assumed µM, no unit text.

The binder listed as cyclo(PWAVRKKAW[dP]) (SMILES CC(C)[C@@H]1NC(=O)[C@H](C)NC(=O)[C@H](Cc2c[nH]c3ccccc23)NC(=O)[C@@H]2CCCN2C(=O)[C@H]2CCCN2C(=O)[C@H](Cc2c[nH]c3ccccc23)NC(=O)[C@H](C)NC(=O)[C@H](CCCCN)NC(=O)[C@H](CCCCN)NC(=O)[C@H](CCCNC(=N)N)NC1=O, also called ^LP-W-A-V-R / ^DP-W-A-K-K) [target cyclic peptide 16] shows IC50 equal to 800
